test_system: JAK3 (catalytic domain, His-tag) (Homo sapiens)
Construct: All four purified enzymes contain only the catalytic domain; His (N); purchased Carna Biosciences, Inc; host or cells: baculovirus expression system
Sequence (P52333 822-1111 limits assumed): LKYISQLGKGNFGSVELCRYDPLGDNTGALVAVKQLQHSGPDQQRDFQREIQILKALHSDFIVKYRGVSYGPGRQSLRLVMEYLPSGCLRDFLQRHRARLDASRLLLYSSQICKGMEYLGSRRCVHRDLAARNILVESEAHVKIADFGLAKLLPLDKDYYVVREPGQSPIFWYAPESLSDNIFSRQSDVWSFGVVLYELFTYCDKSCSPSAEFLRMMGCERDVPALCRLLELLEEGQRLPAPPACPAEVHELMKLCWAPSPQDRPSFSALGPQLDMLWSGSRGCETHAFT
assay_remarks: JAK kinase assay (HTRF, phosphorylation of TK substrate-biotin), JAK3
Format: biochemical
applied_conditions: HTRF assay, ATP at Km (2 μM); read-out: JAK3 kinase inhibitory activity (EC50 indicator)
As shown below, each of these compounds has a reported EC50 value.

Use these answered entries as a reference point.
INSERT INTO assay_data (smiles_data, obs_value) VALUES
  ('N#CCCCS(=O)(=O)c1ccc(C(=O)N2CCN(c3ncnc4[nH]ccc34)CC23CC3)cc1', '> 500 nM'),
  ('CNS(=O)(=O)c1csc(C(=O)N2CCN(c3ncnc4[nH]ccc34)CC23CC3)c1C', '< 100 nM'),
  ('N#CCc1cccc(CC(=O)N2[C@@H]3CC[C@@H]2CN(c2ncnc4[nH]ccc24)C3)c1', '> 500 nM'),
  ('N#Cc1cccc(CC(=O)N2CCN(c3nc(N)nc4[nH]ccc34)CC23CC3)c1', '100 to 500 nM'),
  ('Cc1ccc(C(=O)N2C[C@@H]3C[C@H]2CN3c2ncnc3[nH]ccc23)s1', '> 500 nM'),
  ('CC(C)(C)OC(=O)NCCNS(=O)(=O)c1ccc(C(=O)N2CCN(c3ncnc4[nH]ccc34)CC23CC3)cc1', '< 100 nM');

input: Please provide the recorded EC50 for Cc1cc(S(N)(=O)=O)ccc1OCC(=O)N1CCN(c2ncnc3[nH]ccc23)CC12CC2 , tested on JAK3 (catalytic domain, His-tag) (Homo sapiens).
output: < 100 nM

input: Entry N#Cc1ccc(C(=O)N2CCN(c3ncnc4[nH]ccc34)CC23CC3)cc1F , system JAK3 (catalytic domain, His-tag) (Homo sapiens): what EC50 was measured?
output: 100 to 500 nM

input: Query for JAK3 (catalytic domain, His-tag) (Homo sapiens): what EC50 does the record show for O=C(c1cc2cccc(F)c2[nH]1)N1CCN(c2ncnc3[nH]ccc23)CC12CC2 ?
output: < 100 nM

input: State its EC50 on JAK3 (catalytic domain, His-tag) (Homo sapiens): COc1ccc(C(=O)N2CCN(c3ncnc4[nH]ccc34)CC23CC3)s1
output: < 100 nM
